tested on: Sordaria fimicola; experiment: Antifungal activity against Sordaria fimicola NRRL 6459 assessed as reduction in radical growth at 200 ug/disk by centerpoint inoculation disk assay; assay type: functional; set-up: scale not given: the % may be the effect or the level left
quantity-measured: Activity (%)

>>> readout_number("COC(=O)c1cc(OC)cc(OC(=O)c2c(O)cc3cc(C)oc(=O)c3c2O)c1O")
10
>>> readout_number("Cc1oc(=O)c2c(O)cc(O)c(C)c2c1C")
100
>>> readout_number("COC(=O)c1cc(OC)cc(O)c1OC(=O)c1c(O)cc2cc(C)oc(=O)c2c1O")
51
>>> readout_number("COC(=O)c1cc(OC)cc(O)c1C(=O)c1c(O)cc2cc(C)oc(=O)c2c1O")
34
